Source: patent US20260365670A1

Target: EGFR (d746-750 C797S) (Homo sapiens, UniProt P00533, C797S/DEL746-750)
Construct: purchased signalchem
Sequence (P00533 with tags, fused parts or gaps DEL746-750/C797S limits assumed): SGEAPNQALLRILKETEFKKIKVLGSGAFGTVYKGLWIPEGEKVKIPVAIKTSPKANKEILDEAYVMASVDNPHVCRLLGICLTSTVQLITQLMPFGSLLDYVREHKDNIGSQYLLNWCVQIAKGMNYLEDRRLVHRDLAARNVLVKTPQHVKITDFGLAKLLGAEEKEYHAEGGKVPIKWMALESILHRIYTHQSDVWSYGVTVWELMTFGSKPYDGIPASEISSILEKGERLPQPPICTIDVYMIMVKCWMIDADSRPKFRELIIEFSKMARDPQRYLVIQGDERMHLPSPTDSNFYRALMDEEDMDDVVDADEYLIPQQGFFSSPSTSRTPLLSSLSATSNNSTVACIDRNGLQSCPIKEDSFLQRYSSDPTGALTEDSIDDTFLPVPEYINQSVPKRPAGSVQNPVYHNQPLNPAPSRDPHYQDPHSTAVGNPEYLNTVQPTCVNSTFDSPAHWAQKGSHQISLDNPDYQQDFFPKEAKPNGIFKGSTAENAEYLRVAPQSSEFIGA
Test: Inhibition of EGFR (d746-750 C797S) biochemical enzymatic activity (HTRF)
Details: EGFR Del19-C797S, 1 mM ATP, 1 h, room temperature, read-out: IC50 (nM) @Del19-C797S
Observable: IC50 (nM)

| Compound | Unit name | Recorded number |
| --- | --- | --- |
| CN(C)C1CCN(c2ccc3nc4n(c3c2)C23CCC(CN(CCOc5c(cnn5C)-c5cc(cn(C)c5=O)C(=O)N4)C2)C3)CC1(F)F (single isomer, unassigned) [Example A97B] | nM | 1.7 |
| CN1CCC2(CCN(c3ccc4nc5n(c4c3)C34CCC(CN(CCOc6c(cnn6C)-c6cc(cn(C)c6=O)C(=O)N5)C3)C4)C2)C1 (single isomer, unassigned) [Example A81A] | nM | 389 |
| C[C@@H]1CCCOc2c(cnn2C)-c2cc(cn(C)c2=O)C(=O)Nc2nc3ccc(N4CCOCC4)cc3n2C1 | nM | 2.9 |

P = CCC1CCCOc2c(cnn2C)-c2cc(cn(C)c2=O)C(=O)Nc2nc3ccc(N4CCN(C)CC4)cc3n2C1 (single isomer, unassigned) [Example A16B]
Q = CN(C)C1CN(c2ccc3nc4n(c3c2)C23CCC(CN(CCOc5c(cnn5C)-c5cc(cn(C)c5=O)C(=O)N4)C2)C3)CC1F (single isomer, unassigned) [Example A84B]
Incoming: Which record would sort first by descending IC50, P or Q ? Identify your pick by its label.
Outgoing: Q
